system: PC-3 prostate; test: NCI tumour cell line growth inhibition, 48 h
quantity-name: TGI

Quick one: TGI for O=C1OC(C2Cc3cc4c(cc3C2=O)CCC4)c2ccccc21 (configuration not stated) ?
> 100 µM

Quick one: TGI for O=Cc1ncc(-c2ccc(C(F)(F)F)cc2)c(NC2CCCCCC2)n1 ?
> 10 µM

Quick one: TGI for O=C(COC(c1ccc(F)cc1)c1ccc(F)cc1)N1CCN(CCCc2ccccc2)CC1 ?
11.9 µM

Quick one: TGI for C[C@]1(O)CC(=O)c2c(c(-c3ccc4cc5c(c(O)c4c3O)C(=O)C[C@@](C)(O)C5)c3cccc(O)c3c2O)C1 ?
13.2 µM

Quick one: TGI for CCN(CC)CC(O)CNc1ccc(NCC(O)CCl)c2c1C(=O)c1ccccc1C2=O (configuration not stated) ?
19.8 µM

Quick one: TGI for COc1ccc(Cc2nc3cc(Cl)ccc3o2)cc1 ?
> 100 µM

Quick one: TGI for NC(Cc1cc(Br)c(O)c(Br)c1)C(=O)O (configuration not stated) ?
> 100 µM

Quick one: TGI for O=C(O)C(F)(OC(F)(F)C(F)(F)C(F)(F)F)C(F)(F)F (configuration not stated) ?
> 100 µM

Quick one: TGI for C/C(=N/NC(=S)N1CCCCCC1)c1ccccc1O ?
> 100 µM

Quick one: TGI for COc1cc(C2=Nc3c/c(=C\c4c(O)[nH]c5ccc(Cl)cc45)ccc3=N2)cc(OC)c1OC ?
14.3 µM

Quick one: TGI for CCOC(=O)CCC(NC(=O)N1CCN(c2c(C)nc(C)[nH]c2=O)CC1)C(=O)OCC (configuration not stated) ?
> 100 µM

Quick one: TGI for O=[N+]([O-])c1ccccc1S(=O)(=O)c1ccccc1[N+](=O)[O-] ?
> 100 µM

---

system: LOX IMVI melanoma; experiment: NCI tumour cell line growth inhibition, 48 h
Give TGI for every item shown.
Output spec: scalar in µM, unitless text.

Quick one: TGI for COC(=O)C(=C\Sc1ccccc1)/C=C/C(=O)OC(C)(C)C ?
21.7

Quick one: TGI for Clc1ccc(N/N=C/c2ccccn2)nc1 ?
18.6

Quick one: TGI for CN(C)c1ccc(/C=C2\C[C@H]3[C@@H]4CCC5=CC(=O)CC[C@]5(C)[C@H]4CC[C@]3(C)C2=O)cc1 ?
41.7

Quick one: TGI for C[C@H]1O[C@@H](O[C@H]2[C@@H](O)C[C@H](O[C@H]3[C@@H](O)C[C@H](O[C@H]4CC[C@]5(C)C6C[C@@H](O)[C@]7(C)[C@@H](C8=CC(=O)OC8)CC[C@]7(O)C6CC[C@@H]5C4)O[C@@H]3C)O[C@@H]2C)C[C@H](O)[C@@H]1O (some centres undefined) ?
0.141

---

Give TGI for every item shown.
tested on: DLD-1 colon; test: NCI tumour cell line growth inhibition, 48 h

Quick one: TGI for Cc1cc(=O)[nH]c(CNC(=O)c2cccc3ccccc23)n1 ?
> 100 µM

Quick one: TGI for CNC(=S)NNC(=O)c1c(C)nc2sccn12 ?
> 100 µM

Quick one: TGI for CSc1nc2nc(C)c(C)nc2c(=O)[nH]1 ?
> 100 µM

Quick one: TGI for COC1=C(C)C(=O)C2C(C1=O)C(c1ccc(OC)c(OC)c1)[C@H]2C (stereo partly specified) ?
> 100 µM

Quick one: TGI for O=S1Cc2ccccc2CS1 (stereo unspecified) ?
33.5 µM

Quick one: TGI for CCOC(=O)C(C)OC(=O)c1ccc(C)cc1 (stereo unspecified) ?
> 100 µM

Quick one: TGI for COc1ccc(NC(=O)CSc2nnc(Cc3ccccc3)o2)cc1 ?
> 100 µM

Quick one: TGI for CC1=C(C)C(=O)c2c(cc3c4ccccc4ccn23)C1=O ?
> 100 µM

Quick one: TGI for CCOC(=O)[C@H](Cc1ccccc1)NC(=O)c1nc[nH]c1[N+](=O)[O-] ?
> 100 µM

Quick one: TGI for C=CCOC1=C2CC[C@H](O)[C@@]2(C)CCC1=O ?
> 100 µM

Quick one: TGI for COC1OC(COCc2ccc(Cl)cc2)C(OCc2ccc(Cl)cc2)C1O (stereo unspecified) ?
34.1 µM

---

test system: NCI-H23 lung; experiment: NCI tumour cell line growth inhibition, 48 h
Give TGI for every item shown.
Output spec: scalar in µM, unitless text.

Quick one: TGI for COC(=O)C(=C\Sc1ccccc1)/C=C/C(=O)OC(C)(C)C ?
33.1

Quick one: TGI for CCN(CC)CC(O)CNc1ccc(NCC(O)CCl)c2c1C(=O)c1ccccc1C2=O (stereo not given) ?
18.1

---

Give TGI for every item shown.
test system: MALME-3M melanoma; assay: NCI tumour cell line growth inhibition, 48 h

Quick one: TGI for NC(CCc1ccccc1)(C(=O)O)c1ccccc1 (stereo unspecified) ?
> 100 µM

Quick one: TGI for COc1ccccc1/C=C1\CCC(CN(C)C)C1=O (stereo unspecified) ?
16.2 µM

Quick one: TGI for O=S1Cc2ccccc2CS1 (stereo unspecified) ?
26.4 µM

Quick one: TGI for O=[N+]([O-])c1nccn1CCCN=c1c2ccccc2n(O)c2ccccc12 ?
> 100 µM

Quick one: TGI for Nc1nn(C(=O)Nc2ccc(Cc3ccccc3)cc2)c2ccc(Cl)cc12 ?
> 74 µM

Quick one: TGI for O=CC(O)C(O)C(O)COc1cc(CO)cc2c1C(=O)c1ccccc1C2=O (stereo unspecified) ?
> 100 µM

---

test system: SK-MEL-5 melanoma; assay: NCI tumour cell line growth inhibition, 48 h
quantity-name: TGI (µM)
Output spec: scalar in µM, unitless text.

Quick one: TGI for COC(=O)C1=C(O)C(C(=O)OC)[C@]2(O)[C@H](C(=O)OC)[C@H]1C[C@@H](c1ccccc1OC)[C@H]2C(=O)OC (some centres undefined) ?
13.2

Quick one: TGI for O=C(O[C@H]1CN[C@H](C#Cc2cc3ncnc(Nc4ccc(Cc5ccccc5)cc4)c3s2)C1)N1CCOCC1 ?
8.83

Quick one: TGI for CCC[CH2][Sn]([CH2]CCC)([O]C(=O)c1cc(OC)c(OC)c(OC)c1)[O]C(=O)c1cc(OC)c(OC)c(OC)c1 ?
2.97

Quick one: TGI for CC(C)(C)OC(=O)N1C[C@H](CC(=O)OCc2ccccc2)C[C@H]1C(=O)OCC(Cl)(Cl)Cl ?
8.13

Quick one: TGI for C/C=C1/CN2CCC34C5=CC(=O)C(c6cc7c(cc6OC)N(C)C6=C(C(=O)OC)CC8(CC)CCCN9CCC67C98)=CC5=NC23CCC1C4C(=O)OC (centres undefined) ?
28.5

Quick one: TGI for CC(C)Cc1ccc(C(C)/C=C2\CCC(CN3CCOCC3)C2=O)cc1 (centres undefined) ?
24.3

---

Give TGI for every item shown.
tested on: IGROV1 ovarian; experiment: NCI tumour cell line growth inhibition, 48 h

Quick one: TGI for O=[N+]([O-])c1ccccc1S(=O)(=O)c1ccccc1[N+](=O)[O-] ?
> 100 µM

Quick one: TGI for C=CCOC1=C2CC[C@H](O)[C@@]2(C)CCC1=O ?
> 100 µM

Quick one: TGI for CC(C)[C@@H]1NC(=O)[C@]2(C)CSC(=N2)c2csc(n2)CNC(=O)C[C@@H](/C=C/CCS)OC1=O ?
2.77 µM

Quick one: TGI for CC(=O)c1cc2c3c(c1)c1cc4c(cc1c(=O)n3CC2)OCO4 ?
> 100 µM

Quick one: TGI for O=CC(O)C(O)C(O)COc1cc(CO)cc2c1C(=O)c1ccccc1C2=O (stereo not given) ?
> 100 µM

---

Give TGI for every item shown.
test system: UACC-257 melanoma; experiment: NCI tumour cell line growth inhibition, 48 h

Quick one: TGI for Nc1sccc1S(=O)(=O)c1ccsc1N ?
> 100 µM

Quick one: TGI for CC(=O)N(/N=C\c1ccc([N+](=O)[O-])cc1)c1ccccc1 ?
> 100 µM

Quick one: TGI for Fc1ccc(C2(CCCN3CCc4[nH]c5cc(F)ccc5c4C3)OCCO2)cc1 ?
16.5 µM

Quick one: TGI for Nn1c(-c2ccccc2Nc2ccccc2-c2n[nH]c(=S)n2N)n[nH]c1=S ?
> 50 µM

Quick one: TGI for Cc1nc(NC(=O)COc2cccc(/C=C3\COc4ccccc4C3=O)c2)sc1C ?
8.13 µM

Quick one: TGI for O=C1OCC2=C1C(c1ccccc1)c1cc3c(cc1N2CCO)CCC3 (stereo unspecified) ?
> 25 µM

---

system: K-562 leukemia; assay: NCI tumour cell line growth inhibition, 48 h
quantity-name: TGI

Quick one: TGI for Cc1cc(C)nc(NC(=S)Nc2cccc(Cl)c2)c1 ?
> 100 µM

Quick one: TGI for C=CC[Se]C(=O)c1ccccc1OC(C)=O ?
> 100 µM

Quick one: TGI for NC(CCc1ccccc1)(C(=O)O)c1ccccc1 (stereo unspecified) ?
> 100 µM

Quick one: TGI for Cc1oncc1C(=O)Nc1ccc(C(F)(F)F)cc1 ?
> 100 µM

Quick one: TGI for O=C(CC(=O)C(=O)CC(=O)OCc1ccccc1)OCc1ccccc1 ?
> 100 µM

Quick one: TGI for Nc1ccc(-c2nc3cc(F)ccc3s2)cc1Br ?
> 100 µM

Quick one: TGI for CC(=O)O[C@@]12[C@@H]3O[C@@]4(O)C[C@]5(C)[C@H]6C[C@@](C(C)C)(O[C@H]5c5ccoc5)O[C@H]1[C@]6(C4)O[C@]2(O)C(C)=CC3(C)C ?
> 100 µM

Quick one: TGI for COC(=O)c1c(O)ccc2c1c1c(n2Cc2ccccn2)C(=O)c2ccccc2C1 ?
> 100 µM

Quick one: TGI for O=C(O)c1ccc([N+](=O)[O-])c(P(=O)(O)O)c1 ?
> 100 µM

Quick one: TGI for C=CC1(c2ccc(Cl)c(Cl)c2)OCCO1 ?
> 100 µM

Quick one: TGI for CC(C)(C)OC(=O)N1C[C@H](CC(=O)OCc2ccccc2)C[C@H]1C(=O)OCC(Cl)(Cl)Cl ?
> 50 µM

Quick one: TGI for CN(C)S(=O)(=O)n1ccnc1 ?
> 100 µM

Quick one: TGI for Cn1nc(-c2ccccc2)c(C(=O)/C=C/c2ccccc2)c(N2CCCCC2)c1=O ?
> 100 µM

Quick one: TGI for COC(=O)C1=C(C(=O)Nc2cccnc2)C2OC1(C(Cc1ccccc1)Oc1ccccc1)C1OC21 (stereo unspecified) ?
6.68 µM

Quick one: TGI for CC(Br)C(=O)c1ccc2cc(Br)c3ccccc3c2c1 (stereo unspecified) ?
42.9 µM

Quick one: TGI for Nc1cccc(-c2nc3sccn3c2-c2ccnc(NCCCNS(=O)(=O)c3ccc(C(F)(F)F)cc3)n2)c1 ?
> 100 µM

Quick one: TGI for CCOC(=O)/C(=C/c1cc(OC)ccc1OC)CC(=O)O ?
> 31.6 µM

Quick one: TGI for CC1=C(C)C(=O)c2c(cc3c4ccccc4ccn23)C1=O ?
> 100 µM

Quick one: TGI for Cn1c(=O)c2[nH]c(/N=N\n3ccc4ccccc43)nc2n(C)c1=O ?
> 100 µM

Quick one: TGI for CCOc1ccc(/C=N/Nc2cc(C)nc3ccc(Cl)cc23)cc1 ?
2.98 µM

Quick one: TGI for NC(=O)Cc1ccccc1Oc1nccc(-c2c(-c3ccc(F)cc3)ncn2C2CCNCC2)n1 ?
> 25 µM

Quick one: TGI for CC(=O)N(/N=C\c1ccc([N+](=O)[O-])cc1)c1ccccc1 ?
> 100 µM

Quick one: TGI for S=C(Nc1ccc(-c2nc3ccccc3s2)cc1)Nc1ccccn1 ?
> 100 µM

Quick one: TGI for O=c1oc2ccccc2c(-c2ccc(O)cc2)c1Oc1ccc(Cl)cc1 ?
72.1 µM

Quick one: TGI for Cc1nc(NC(=O)COc2cccc(/C=C3\COc4ccccc4C3=O)c2)sc1C ?
> 100 µM

Quick one: TGI for C/C(=C\CNc1ncnc2nc(Cl)[nH]c12)CO ?
> 100 µM

Quick one: TGI for CC(=O)OC[C@@]12CC[C@H]3C(C)(C)CCC[C@]3(C)[C@H]1C[C@@H](C1=CC(=O)O[C@H]1O)O2 ?
3.56 µM

Quick one: TGI for COc1cccc2c3cccc(OC)c3c3[nH]cnc3c12 ?
7.16 µM

Quick one: TGI for COC(OC)C1(c2ccccc2)Oc2ccccc2C1=O (stereo unspecified) ?
> 100 µM

Quick one: TGI for N#CC(NC12CC3CC(CC(C3)C1)C2)c1ccccc1 (stereo unspecified) ?
> 100 µM

Quick one: TGI for CCOC(=O)N/N=C/C1=NN(C(=O)OCC)S(=O)C1C (stereo unspecified) ?
> 100 µM

Quick one: TGI for Cn1c(O)c(C=N)c(=O)n(C)c1=O ?
> 100 µM

Quick one: TGI for C[CH2][Sn]1([CH2]C)[O]C2C(O)OC(CO)C(O)C2[O]1 (stereo unspecified) ?
41.4 µM

Quick one: TGI for CC(=O)NC(ON1C(=O)COc2ccccc21)C(Cl)(Cl)Cl (stereo unspecified) ?
> 100 µM

Quick one: TGI for Cc1cc(NC(=O)NC(=O)c2ccccc2[N+](=O)[O-])ccc1Oc1ncc(Cl)cn1 ?
> 100 µM

Quick one: TGI for Cc1cc(=O)cc2sc3cc(Cl)ccc3nc1-2 ?
20.6 µM

Quick one: TGI for Clc1ccc(N/N=C/c2ccccn2)nc1 ?
> 100 µM

Quick one: TGI for NCCCCN ?
> 100 µM

Quick one: TGI for CC(C)(C)c1ccc(O)c(Br)c1 ?
> 100 µM

Quick one: TGI for CC1=C(C(=O)OCCc2ccc([N+](=O)[O-])cc2)C(c2ccccc2C(F)(F)F)C(C(=O)OC(C)C)=C(C)N1 (stereo unspecified) ?
> 100 µM

Quick one: TGI for COc1ccc(C2=C(Br)C(=O)OC2)cc1Cl ?
> 86.2 µM

Quick one: TGI for CC(=O)Oc1ccn2nc(C)c(Cc3c(C)nn4ccc(OC(C)=O)cc34)c2c1 ?
> 100 µM

Quick one: TGI for CCOC(=O)C(C)OC(=O)c1ccc(C)cc1 (stereo unspecified) ?
> 100 µM

Quick one: TGI for CCOC(=O)CSc1[nH]c2nc(C)nc(Cl)c2c1C#N ?
> 10 µM

Quick one: TGI for S=c1cn[nH]c2ccc(Br)cc12 ?
> 100 µM

Quick one: TGI for Oc1ccc(Cl)cc1Cc1cc(Cl)cc(Cc2cc(Cl)ccc2O)c1O ?
10.3 µM

meta.source: PubChem BioAssay (NCI)
